# System: Streptococcus sobrinus
# test.method.notes: Susceptibility test to antibiotics, microbroth dilution method (MIC)
# Format: cell-based
# condition.description: Streptococcus sobrinus, Streptococcus sobrinus 0MZ176 (serotype d); read-out: MIC
# Protocol: The susceptibility test was carried out in accordance with microbroth dilution method. The above-described antibiotics were dissolved in an appropriate solution, respectively, and the respective antibiotic solutions were divided into serial two-fold dilutions in a 96-well microtiter plates containing BHI broth. […]
measurement.type: MIC (µg/mL)

Record excerpt, results attached:
{"columns": ["smiles", "units", "MIC"],
 "data": [
  ["CO[C@@]1(NC(=O)Cc2cccs2)C(=O)N2C(C(=O)O)=C(COC(N)=O)CS[C@@H]21", "µg/mL", 12.5],
  ["C[C@@H](O)[C@H]1C(=O)N2C(C(=O)O)=C(SCCN=CN)C[C@H]12", "µg/mL", 0.031],
  ["CC1(C)S[C@@H]2[C@H](NC(=O)Cc3ccccc3)C(=O)N2[C@H]1C(=O)O", "µg/mL", 0.05],
  ["CC1=C(C(=O)O)N2C(=O)[C@@H](NC(=O)[C@H](N)c3ccccc3)[C@H]2SC1", "µg/mL", 1.25],
  ["NC(=O)OC[C@@H]1[C@H](NC(=O)/C(=N\\OCC(=O)O)c2csc(N)n2)C(=O)N1S(=O)(=O)O", "µg/mL", 2000],
  ["C[C@H]1[C@H](NC(=O)/C(=N\\OC(C)(C)C(=O)O)c2csc(N)n2)C(=O)N1S(=O)(=O)O", "µg/mL", 2000]
]}

a = Cc1nnc(SCC2=C(C(=O)O)N3C(=O)[C@@H](NC(=O)Cn4cnnn4)[C@H]3SC2)s1
b = Cc1onc(-c2ccccc2Cl)c1C(=O)N[C@@H]1C(=O)N2[C@@H]1SC(C)(C)[C@@H]2C(=O)O
IN: Hi there! Just curious which has the higher MIC between a and b . Give the label under which the chosen entry appears.
OUT: b
(b: 1.25 µg/mL, a: 0.25 µg/mL)
